The reported numbers originate from patent US5744452A.

Tested on: murine bone marrow cells
run.description: .THETA.-antigen expression on murine bone marrow cells (T-lymphocyte precursor differentiation)
Assay type: cell-based, CBA strain mice
measurement.conditions: Table 5; peptide 0.1 μg/ml
Where a SMILES comes first, the peptide text is derived from it.
value.kind: Percent of murine bone marrow cells expressing .THETA.-antigen (%)
Reply with just the number (in %).

N[C@@H](CCC(=O)N[C@@H](Cc1c[nH]c2ccccc12)C(=O)O)C(=O)O; 37
N[C@@H](CCC(=O)O)C(=O)N[C@@H](Cc1c[nH]c2ccccc12)C(=O)O [Thymogen, L-glutamyl-L-tryptophan, reference compound] (H-Glu-Trp-OH); 20
CN[C@@H](CCC(=O)N[C@@H](Cc1c[nH]c2ccccc12)C(=O)O)C(=O)O; 40
CC(=O)N[C@@H](CCC(=O)N[C@@H](Cc1c[nH]c2ccccc12)C(=O)O)C(=O)O; 40

Provide measured Percent of murine bone marrow cells expressing .THETA.-antigen on murine bone marrow cells for N[C@@H](CCC(=O)N[C@@H](Cc1cn(C=O)c2ccccc12)C(=O)O)C(=O)O please.
36

* * *

System: murine spleen cells
run.description: IL-2 production by Concanavalin A activated murine spleen cells (CTLL-2 cell assay)
Type: cell-based, CBA mice
measurement.conditions: Table 6; peptide 10 μg/ml
Protocol: Spleen cells from CBA mice were cultured in tissue culture plates at a 10^6 cells/ml in RPMI-1640 medium supplemented with 10% fetal calf serum, 2 mM L-glutamine, and 80 μg/ml of Gentamycin. […] After 36 hours supernatants were collected, centrifuged at 800 xg and IL-2 levels were measured in a CTLL-2 cell assay (Gillis et al., "T-cell Growth Factor: Parameters of Production and Quantitative Assay for Activity," J. Immunol., 120: 2027-2032, 1978). […]
Where a SMILES comes first, the peptide text is derived from it.
// interleukin-2 production by murine spleen cells lookup, one value per entry
Write the value as a bare number.

Previously resolved entries follow.
N[C@@H](CCC(=O)O)C(=O)N[C@@H](Cc1c[nH]c2ccccc12)C(=O)O [Thymogen, L-glutamyl-L-tryptophan, reference compound] (H-Glu-Trp-OH); 129
N[C@@H](CCC(=O)N[C@@H](Cc1cn(C=O)c2ccccc12)C(=O)O)C(=O)O; 144
CC(=O)N[C@@H](CCC(=O)N[C@@H](Cc1c[nH]c2ccccc12)C(=O)O)C(=O)O; 170
CN[C@@H](CCC(=O)N[C@@H](Cc1c[nH]c2ccccc12)C(=O)O)C(=O)O; 171

Indicate its recorded interleukin-2 production by murine spleen cells; the compound in question is N[C@@H](CCC(=O)N[C@@H](Cc1c[nH]c2ccccc12)C(=O)O)C(=O)O
160

* * *

Tested on: murine bone marrow cells
run.description: .THETA.-antigen expression on murine bone marrow cells (T-lymphocyte precursor differentiation)
Type: cell-based, CBA strain mice
measurement.conditions: Table 5; peptide 0.001 μg/ml
value.kind: Percent of murine bone marrow cells expressing .THETA.-antigen (%)
All answers are understood in %, so give the number only.

// solved cases for Percent of murine bone marrow cells expressing .THETA.-antigen follow
N[C@@H](CCC(=O)N[C@@H](Cc1c[nH]c2ccccc12)C(=O)O)C(=O)O [Bestim, γ-L-glutamyl-L-tryptophan]; 31
N[C@@H](CCC(=O)N[C@@H](Cc1cn(C=O)c2ccccc12)C(=O)O)C(=O)O [D, γ-L-glutamyl-Nin -formyl-L-tryptophan]; 25
CC(=O)N[C@@H](CCC(=O)N[C@@H](Cc1c[nH]c2ccccc12)C(=O)O)C(=O)O [C, N-acetyl-γ-L-glutamyl-L-tryptophan]; 28

Could you now consider this next compound?
Fetch value of Percent of murine bone marrow cells expressing .THETA.-antigen on murine bone marrow cells for CN[C@@H](CCC(=O)N[C@@H](Cc1c[nH]c2ccccc12)C(=O)O)C(=O)O [B, N-methyl-γ-L-glutamyl-L-tryptophan] .
29
